src = patent US6603046B1

System: L. major promastigotes
Test: L. major promastigotes from 4-days cultures, 3H-thymidine uptake (Examples 5, 14)
Assay type: cell-based, Leishmania major
Details: Leishmania major; Table 14.1; 5 μg/ml; read-out: percentage inhibition of promastigotes (upper figure)
Text: Parasite cultures. The same parasite culture as described in Example 4. Promastigotes were harvested on day 4 of the culture and used for the parasiticidal assay. Effect on promastigotes. […] Promastigotes were then harvested on filter paper by means of a cell harvester (Skatron, Lierbyen, Norway), extensively washed with distilled water and counted in a scintillation counter (Minaxi Ti-Carb 4000, United Technologies, Packard, USA). […]
Tick true (1) if inhibition at 5 µg/mL is 70% or greater. Tick false (0) if inhibition at 5 µg/mL is less than 70%.

# count of solved cases: 5
(Q) Does inhibition at 5 µg/mL meet or surpass 70% for C=CCOc1ccc(C(=O)/C=C/c2cccc(OC)c2OC)cc1 [drawing 81] ?
(A) true (1)

(Q) Is it the case that COc1ccc(/C=C/C(=O)c2ccc(O)cc2)c(OC)c1 [drawing 70] has inhibition at 5 µg/mL reaching or exceeding 70%?
(A) false (0)

(Q) Determine whether measured inhibition at 5 µg/mL meets or exceeds 70% for COc1ccc(/C=C/C(=O)c2ccc(O)cc2)cc1OC [drawing 73]
(A) false (0)

(Q) Confirm if inhibition at 5 µg/mL reported for the compound COc1cccc(/C=C/C(=O)c2ccc(O)cc2)c1OC [drawing 69] is 70% or above.
(A) true (1)

(Q) Please indicate if the recorded inhibition at 5 µg/mL for COc1cc(OC)c(/C=C/C(=O)c2ccc(O)cc2)c(OC)c1 meets or exceeds 70%.
(A) false (0)

New cases:
(Q) Threshold query (inhibition at 5 µg/mL >= 70%) on COc1ccc(CCC(=O)c2ccco2)c(OC)c1
(A) false (0)

(Q) Entry CC(C)=CCc1cc(/C=C/C(=O)c2ccc(O)c(CC=C(C)C)c2O)ccc1O [drawing 98] : is its inhibition at 5 µg/mL no less than 70%?
(A) false (0)

====

System: P. falciparum
Assay: P. falciparum growth in vitro (Table 14.1, strain not stated)
Format: cell-based
Settings: Plasmodium falciparum; 5 μg/ml; read-out: inhibition of malaria parasites (middle figure) (converted)
Experimental: The P. falciparum experimental setup was as described in Example 15. Testing of the effect of drugs and serum on the in vitro growth of the parasites. […] The cultures were then harvested onto glass fiber filters using a Skatron cell harvester (Skatron, Lierbyen, Norway), and the incorporation of 3-H-hypoxanthine into the DNA of dividing parasites was determined by liquid scintillation spectrometry.
Below, each entry is listed with its recorded inhibition at 5 µg/mL.
Please respond with the number in % and leave the unit unwritten.

(Q) // lookup inhibition at 5 µg/mL | system=P. falciparum | key= C=CCOc1ccc(C(=O)/C=C/c2cc(OC)ccc2OC)cc1 [drawing 78]
(A) 35

(Q) inhibition at 5 µg/mL of C=CCOc1ccc(C(=O)/C=C/c2cc(OC)cc(OC)c2)cc1 [drawing 85] on P. falciparum?
(A) 74.3

(Q) Query the reported inhibition at 5 µg/mL for P. falciparum; item: COc1ccc(/C=C/C(=O)c2ccc(O)cc2)c(OC)c1 [drawing 70]
(A) 31.6

(Q) # returns recorded inhibition at 5 µg/mL (system: P. falciparum) for O=C(/C=C/c1ccc(O)cc1)c1ccccc1 [4-Hydroxychalcone, 4-hydroxychalcone]
(A) 61.3

(Q) Notebook entry, P. falciparum assay: inhibition at 5 µg/mL of C=CC(C)(C)c1cc(/C=C/C(=O)c2ccc(O)cc2)c(OC)cc1O = ?
(A) 98

(Q) Fill in the recorded inhibition at 5 µg/mL for this molecule, with P. falciparum as test system: COc1ccc(/C=C/C(=O)c2ccc(O)cc2)cc1OC [drawing 73]
(A) 39.9

(Q) Write down the reported inhibition at 5 µg/mL of C=CCOc1ccc(C(=O)/C=C/c2ccc(OC)c(OC)c2)cc1 [drawing 84] , test system: P. falciparum.
(A) 22.8

(Q) Under P. falciparum: inhibition at 5 µg/mL value of C=CCOc1ccc(C(=O)/C=C/c2cccc(OC)c2OC)cc1 [drawing 81] ?
(A) 68.2

Switching to the query record.
(Q) Record lookup: for P. falciparum, what inhibition at 5 µg/mL belongs to COc1ccc(OC)c(/C=C/C(=O)c2ccc(O)cc2)c1 [drawing 71] ?
(A) 71

====

Test: Serum concentration in rabbits after intravenous administration (Example 20)
Type: in vivo
Conditions: rabbit, one hour following intravenous 20 mg per kg
measurement.kind: concentration at 1 h (ng/mL)
Report as a plain number; the unit ng/mL is understood.

(Q) Using the record for C=CC(C)(C)c1cc(/C=C/C(=O)c2ccc(O)cc2)c(OC)cc1O [Licochalcone A, licochalcone A] , report its concentration at 1 h.
(A) 350

====

Tested on: Eimeria tenella
Assay: Anticoccidial activity in chickens infected with Eimeria tenella (Example 28)
Type: in vivo
Conditions: number of chickens; groups of 35, licochalcone A 20
Below, each of the molecules is paired with its reported Mortality value.
Lab note: jot down the number only; don't add units.

Would you please look over these solved cases?
(Q) # Mortality lookup, item C=CCOc1ccc(C(=O)/C=C/c2cc(OC)ccc2OC)cc1
(A) 2

(Q) Give the measured Mortality of C=CC(C)(C)c1cc(/C=C/C(=O)c2ccc(O)cc2)c(OC)cc1O .
(A) 0

(Q) Item CC[C@@H](C(=O)[C@@H](C)[C@@H](O)[C@H](C)[C@@H]1O[C@@H]([C@@H](CC)C(=O)O)CC[C@@H]1C)[C@H]1O[C@]2(C=C[C@@H](O)[C@]3(CC[C@@](C)([C@H]4CC[C@](O)(CC)[C@H](C)O4)O3)O2)[C@H](C)C[C@@H]1C [salinomycin, reference compound] has what recorded Mortality?
(A) 0

More entries:
(Q) What value of Mortality has been reported for the following molecule? COc1ccc(/C=C/C(=O)c2ccccc2)c(OC)c1
(A) 1

====

Test system: L. major promastigotes
Test: L. major promastigotes from 4-days cultures, 3H-thymidine uptake (Examples 5, 14)
Format: cell-based, Leishmania major
Settings: Leishmania major, read-out: percentage inhibition of 3H-thymidine uptake (mean ± SEM); Table 5.1; 5 μg/ml
This listing pairs compounds with measured inhibition at 5 µg/mL.
Unit % implied. Number only.

(Q) For the compound COc1cc(/C=C/C(=O)c2ccc(O)cc2O)ccc1O [drawing 59] , what inhibition at 5 µg/mL is on record?
(A) 66.7

(Q) Data request, read-out inhibition at 5 µg/mL, for COCCOCOc1ccc(C(=O)/C=C/c2ccc(OC)cc2OC)cc1
(A) 31

(Q) Consider the compound shown here: C=CCOc1ccc(C(=O)/C=C/c2ccc(OC)cc2OC)cc1 [drawing 56] What is its recorded inhibition at 5 µg/mL?
(A) 64.5

(Q) Query: inhibition at 5 µg/mL; subject: COCOc1ccc(C(=O)/C=C/c2ccc(OC)cc2OC)cc1 [drawing 58]
(A) 56.3

(Q) Suppose we examine the compound O=C(/C=C/c1ccccc1)c1ccc(O)cc1 [drawing 53] ; what inhibition at 5 µg/mL value has been reported?
(A) 70.8

(Q) Give its inhibition at 5 µg/mL value. Item: O=C(/C=C/c1ccc(O)cc1)c1ccccc1 [drawing 54]
(A) 70.1

The record that follows has no inhibition at 5 µg/mL shown yet.
(Q) Quick check: inhibition at 5 µg/mL of COc1ccc(/C=C/C(=O)c2ccc(O)cc2)c(OC)c1 [drawing 55] ?
(A) 61.8

====

System: chloroquine resistant P. falciparum DD2 strain
Assay: In vitro growth of P. falciparum DD2, 3H-hypoxanthine uptake (Example 15)
Format: cell-based, Plasmodium falciparum
Settings: title: percentage inhibition of 3H-hypoxanthine uptake; 1 μg/ml
measurement.kind: Growth in % of control (mean ± SEM) (%)
// note: answer is a bare numeric in %

(Q) Which measured Growth in % of control (mean ± SEM) value corresponds to C=CCOc1ccc(C(=O)/C=C/c2cccc(OC)c2OC)cc1 ?
(A) 29.6

(Q) Field request: Growth in % of control (mean ± SEM) | item: C=CCOc1ccc(C(=O)/C=C/c2cc(OC)cc(OC)c2)cc1
(A) 3.4

(Q) Entry under review: COc1ccc(OC)c(/C=C/C(=O)c2ccccc2)c1 . Reported Growth in % of control (mean ± SEM)?
(A) 5.5

(Q) Query: Growth in % of control (mean ± SEM); subject: COc1ccc(OC)c(/C=C/C(=O)c2ccc(O)cc2)c1 [2,5-Dimethoxy-4′-hydroxychalcone]
(A) 21.2

(Q) Record request: Growth in % of control (mean ± SEM) value, item C=CCOc1ccc(C(=O)/C=C/c2cc(OC)ccc2OC)cc1
(A) 12.1

====

Test system: chloroquine resistant P. falciparum DD2 strain
Test: In vitro growth of P. falciparum DD2, 3H-hypoxanthine uptake (Example 15)
Assay type: cell-based, Plasmodium falciparum
Conditions: title: percentage inhibition of 3H-hypoxanthine uptake; 10 μg/ml
Consider the following partition of reported Growth in % of control (mean ± SEM) into named classes: lowest (below 60%), middle (60% to below 80%), highest (80% or more)

Use the examples below as a reference point.
(Q) The entry to classify is COc1cccc(/C=C/C(=O)c2ccc(O)cc2)c1OC [2,3-Dimethoxy-4′-hydroxychalcone] ; which class holds it?
(A) middle

(Q) For this molecule, which bin applies? C=CCOc1ccc(C(=O)/C=C/c2ccc(OC)c(OC)c2)cc1
(A) lowest

(Q) Lab log: C=CCOc1ccc(C(=O)/C=C/c2ccc(OC)cc2OC)cc1 — assign Growth in % of control (mean ± SEM) category
(A) middle

---
(Q) Returns: class label. Input: COc1ccc(/C=C/C(=O)c2ccc(O)cc2)c(OC)c1 [2,4-Dimethoxy-4′-hydroxychalcone, 2,4-dimethoxy-4′-hydroxychalcone]
(A) middle

(Q) Which Growth in % of control (mean ± SEM) category applies to C=CCOc1ccc(C(=O)/C=C/c2c(OC)cccc2OC)cc1 here?
(A) lowest

(Q) Classify this molecule: COc1ccc(/C=C/C(=O)c2ccc(O)cc2)cc1OC [3,4-Dimethoxy-4′-hydroxychalcone, 3,4-dimethoxy-4′-hydroxychalcone]
(A) highest

(Q) Class for COc1ccc(OC)c(/C=C/C(=O)c2ccc(O)cc2)c1 [2,5-Dimethoxy-4′-hydroxychalcone] ?
(A) highest

(Q) Where would C=CCOc1ccc(C(=O)/C=C/c2cccc(OC)c2OC)cc1 land among the classes by reported Growth in % of control (mean ± SEM)?
(A) lowest
